Source listed as PubChem BioAssay AID1259407.

- Test system: CCRIS mutagenicity, Ames/micronucleus/aberration tests
- TEST_NAME: CCRIS mutagenicity studies
- MEASUREMENT_SETUP: Test System: AMES SALMONELLA TYPHIMURIUM; Strain/Indicator: TA100; Metabolic Activation: RAT, LIVER, S-9, PHENOBARBITAL; Method: PREINCUBATION
- Excerpt: The CCRIS database contains chemical records with carcinogenicity, mutagenicity, tumor promotion, and tumor inhibition test results. It was developed by the National Cancer Institute (NCI). Data are derived from studies cited in primary journals, current awareness tools, NCI reports, and other sources. Test results have been reviewed by experts in carcinogenesis and mutagenesis. CCRIS provides historical information from the years 1985 - 2011. It is no longer updated. […]
Calls of active or inactive are those of the source. The rule behind the calls is not given here.
QUANTITY_MEASURED: mutagenic call

Known results for molecules:
MOLECULE: CC(=O)CN(CC(C)O)N=O (stereo not given)
QUANTITY_MEASURED: mutagenic call
RESULT: active; positive
--
MOLECULE: CC(=O)O[C@@H]1[C@@H](O)[C@H]2O[C@@H]3C=C(C)C(=O)[C@@H](O)[C@]3(CO)[C@]1(C)[C@]21CO1
QUANTITY_MEASURED: mutagenic call
RESULT: inactive; negative
--
MOLECULE: CC(=O)OC[C@]12C[C@H](OC(=O)CC(C)C)C(C)=C[C@H]1O[C@@H]1[C@H](O)[C@@H](OC(C)=O)[C@@]2(C)[C@]12CO2
QUANTITY_MEASURED: mutagenic call
RESULT: inactive; negative
--
MOLECULE: CC(=O)OC(C)CN(CC(C)OC(C)=O)N=O (stereo not given)
QUANTITY_MEASURED: mutagenic call
RESULT: active; positive

Let us move to another entry and its mutagenic call.
**Q:** Using the record for `CC1=C2C(=CO[C@H](C)[C@H]2C)C(=O)C(C(=O)O)=C1O` , report its mutagenic call.
**A:** inactive; negative

----------
- System: CCRIS mutagenicity, Ames/micronucleus/aberration tests
- TEST_NAME: CCRIS mutagenicity studies
- MEASUREMENT_SETUP: Test System: E. COLI; Strain/Indicator: WP2 UVRA; Metabolic Activation: NONE; Method: STANDARD PLATE
Active and inactive are the calls of the source. No rule for the calls is given here.
Please state which outcome applies, choosing from active, inactive

Completed entries (count: 10):
MOLECULE: COc1cc(C=O)ccc1O
CLASS: inactive
//
MOLECULE: C#C[C@]1(O)CC[C@H]2[C@@H]3CCc4cc(O)ccc4[C@H]3CC[C@@]21C
CLASS: inactive
//
MOLECULE: CCCC(=O)C1c2cccc(O)c2C(=O)c2c(O)cccc21
CLASS: inactive
//
MOLECULE: Clc1nc(Cl)nc(Nc2ccccc2Cl)n1
CLASS: inactive
//
MOLECULE: O=C(O)[C@@H]1CS[C@H](c2ccccc2O)N1C(=O)CCSSCCC(=O)N1[C@@H](c2ccccc2O)SC[C@H]1C(=O)O
CLASS: inactive
//
MOLECULE: Clc1cccc(C2CO2)c1 (stereo not drawn)
CLASS: active
//
MOLECULE: CC(C)NCC(O)COc1cccc2c1OCC(O)C2 (stereo not drawn)
CLASS: inactive
//
MOLECULE: S=C=Nc1cccc2ccccc12
CLASS: inactive
//
MOLECULE: CCN(CC)CCCNC(=O)C(=O)N/N=C/c1ccc([N+](=O)[O-])o1
CLASS: active
//
MOLECULE: O=[N+]([O-])c1ccc2c(c1)Cc1ccccc1-2
CLASS: inactive

Now for a further molecule.
**Q:** Dear colleague, could you share the recorded outcome for `CCOc1ccc(NC(C)=O)cc1N` when you have a moment?
**A:** inactive

----------
- System: CCRIS mutagenicity, Ames/micronucleus/aberration tests
- TEST_NAME: CCRIS mutagenicity studies
- MEASUREMENT_SETUP: Test System: AMES SALMONELLA TYPHIMURIUM; Strain/Indicator: TA100; Metabolic Activation: RAT LIVER S-9, PHENOBARBITAL AND BETA-NAPHTHOFLAVONE; Method: PREINCUBATION
The source made the active and inactive calls. How the calls were made is not given here.
Please state which outcome applies, choosing from yes (1) (active), no (0) (inactive)

Completed entries (count: 6):
COMPOUND_STRUCTURE: N#CN=C(N)N
CLASS: no (0)
--
COMPOUND_STRUCTURE: Nc1ccccc1N
CLASS: yes (1)
--
COMPOUND_STRUCTURE: CCNCCN
CLASS: no (0)
--
COMPOUND_STRUCTURE: CC(C)Nc1ccc(Nc2ccccc2)cc1
CLASS: no (0)
--
COMPOUND_STRUCTURE: CC1=CC(=C(c2ccc(N)cc2)c2ccc(N)cc2)C=CC1=N
CLASS: no (0)
--
COMPOUND_STRUCTURE: [Cl][V]([Cl])[Cl]
CLASS: no (0)

**Q:** Dear colleague, could you share the recorded outcome for `O=[N+]([O-])c1ccc(Cl)cc1Cl` when you have a moment?
**A:** yes (1)

----------
- Tested on: CCRIS mutagenicity, Ames/micronucleus/aberration tests
- TEST_NAME: CCRIS mutagenicity studies
- MEASUREMENT_SETUP: Test System: AMES SALMONELLA TYPHIMURIUM; Strain/Indicator: TA104; Metabolic Activation: NONE; Method: STANDARD PLATE
Active and inactive are the calls of the source. No rule for the calls is given here.
Please state which outcome applies, choosing from True = active, False = inactive

Completed entries (count: 3):
COMPOUND: Cc1occc(=O)c1[O-].Cc1occc(=O)c1[O-].Cc1occc(=O)c1[O-].[Cr+3]
CLASS: False
--
COMPOUND: CN(C)CCN(Cc1cccs1)c1ccccn1
CLASS: False
--
COMPOUND: CC(C)CCC[C@@H](C)[C@H]1CC[C@H]2[C@@H]3CC=C4CCCC[C@]4(C)[C@H]3CC[C@]12C
CLASS: False

**Q:** Dear colleague, could you share the recorded outcome for `CN(C)c1ccc(C(=C2C=CC(=[N+](C)C)C=C2)c2ccc(N(C)C)cc2)cc1` when you have a moment?
**A:** False

**Q:** Now consider `C[n+]1ccn(CCC[n+]2ccc(C(N)=O)cc2)c1/C=N/O` and answer again.
**A:** False

----------
- Tested on: CCRIS mutagenicity, Ames/micronucleus/aberration tests
- TEST_NAME: CCRIS mutagenicity studies
- MEASUREMENT_SETUP: Test System: AMES SALMONELLA TYPHIMURIUM; Strain/Indicator: TA102; Metabolic Activation: RAT, LIVER, S-9, AROCLOR 1254; Method: PREINCUBATION
- From the text: The CCRIS database contains chemical records with carcinogenicity, mutagenicity, tumor promotion, and tumor inhibition test results. It was developed by the National Cancer Institute (NCI). Data are derived from studies cited in primary journals, current awareness tools, NCI reports, and other sources. Test results have been reviewed by experts in carcinogenesis and mutagenesis. CCRIS provides historical information from the years 1985 - 2011. It is no longer updated. […]
The source made the active and inactive calls. How the calls were made is not given here.
QUANTITY_MEASURED: mutagenic call

Known results for molecules:
COMPOUND_STRUCTURE: O=C(O)COc1ccccc1
mutagenic call: inactive; negative
--
COMPOUND_STRUCTURE: O
mutagenic call: inactive; negative
--
COMPOUND_STRUCTURE: CCC(=O)O
mutagenic call: inactive; negative
--
COMPOUND_STRUCTURE: Cc1cnccn1
mutagenic call: inactive; negative

**Q:** Using the record for `c1cnccn1` , report its mutagenic call.
**A:** inactive; negative

**Q:** Now consider `O=Cc1ccco1` and answer again.
**A:** inactive; negative

----------
- Tested on: CCRIS mutagenicity, Ames/micronucleus/aberration tests
- TEST_NAME: CCRIS mutagenicity studies
- MEASUREMENT_SETUP: Test System: AMES SALMONELLA TYPHIMURIUM; Strain/Indicator: TA100; Metabolic Activation: NONE; Method: STANDARD PLATE
Calls of active or inactive are those of the source. How the calls were made is not given here.
Please state which outcome applies, choosing from Y for active, N for inactive

COMPOUND: Nc1ncnc2nc[nH]c12
CLASS: N
--
COMPOUND: CCOC(=O)Cc1c(C(=O)O)c2ccccc2n1C
CLASS: N

Now for a further compound.
**Q:** Dear colleague, could you share the recorded outcome for `O=[N+]([O-])c1ccc(/C=C/c2ccc(Cl)cc2)cc1` when you have a moment?
**A:** N

----------
- System: CCRIS mutagenicity, Ames/micronucleus/aberration tests
- TEST_NAME: CCRIS mutagenicity studies
- MEASUREMENT_SETUP: Test System: AMES SALMONELLA TYPHIMURIUM; Strain/Indicator: TA97; Metabolic Activation: RAT, LIVER, S-9, AROCLOR 1254 (30%); Method: PREINCUBATION
Active and inactive are the calls of the source. How the calls were made is not given here.
QUANTITY_MEASURED: mutagenic call

Known results for compounds:
COMPOUND: O=Cc1c(Cl)cccc1Cl
mutagenic call: inactive; negative
//
COMPOUND: C#C[C@]1(O)CC[C@H]2[C@@H]3CCc4cc(O)ccc4[C@H]3CC[C@@]21C
mutagenic call: inactive; negative
//
COMPOUND: CCCCCCCCCCCCCC(=O)O
mutagenic call: inactive; negative
//
COMPOUND: CCCCOP(=O)(OCCCC)Oc1ccccc1
mutagenic call: inactive; negative
//
COMPOUND: CCO
mutagenic call: inactive; negative

**Q:** Using the record for `c1cc2c3c(cccc3c1)CC2` , report its mutagenic call.
**A:** inactive; negative

**Q:** Now consider CC(O)C#N (stereo not drawn) and answer again.
**A:** inactive; negative

**Q:** Now consider `CCCCCCCCCc1ccc(OP(=O)(Oc2ccccc2)Oc2ccccc2)cc1` and answer again.
**A:** inactive; negative
